Experiment: NCI Yeast Anticancer Drug Screen. Data for the mlh1 rad18 strain (AID 175)
Details: S. cerevisiae mlh1 rad18 strain growth inhibition; at 50.0 µM; active compounds read high
Experimental: Growth inhibition of yeast strains with defined genetic alterations is measured as a screen for potential anti-cancer activity. Selected strains with alterations in DNA damage repair or cell cycle control were exposed to compounds and growth inhibition was measured relative to vehicle treated controls. The strain used in this assay is mlh1 rad18
The panel holds about 79,000 compounds, 15% with a hit somewhere; the sample as a whole holds those more often. Calls of active or inactive are those of the source. Rule as the data show it: active = growth inhibition above about 70%; inactive = the rest.

{"Molecule": "ClC1=C(Cl)C2(Cl)C3C(C4(Cl)C(Cl)=C(Cl)C3(Cl)C4(Cl)Cl)C2(Cl)C1(Cl)Cl (stereo not given)", "growth inhibition": "-11.8% (inactive)"}
{"Molecule": "CC(=O)OCC12CCC(C)=CC1OC1C(O)C(OC(C)=O)C2(C)C12CO2 (stereo not given)", "growth inhibition": "92.5% (active)"}
{"Molecule": "COc1ccc(NC2=NCCO2)c2ccccc12", "growth inhibition": "-20.9% (inactive)"}
{"Molecule": "COc1ccc(C(OCC2OC(n3ccc(NC(=O)c4ccccc4)nc3=O)CC2OP2(=S)SCCS2)(c2ccccc2)c2ccc(OC)cc2)cc1 (stereo not given)", "growth inhibition": "78.7% (active)"}
{"Molecule": "CC(N)C(O)c1ccc(O)cc1 (stereo not given)", "growth inhibition": "-44% (inactive)"}

---

Parameter growth inhibition: see the listing below.
test: NCI Yeast Anticancer Drug Screen. Data for the sgs1 mgt1 strain (AID 161);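 also: 0% = growth of cultures given vehicle only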; details: S. cerevisiae sgs1 mgt1 strain, at 50.0 µM, active compounds read high
Compounds without any hit were thinned out: in the full panel of roughly 79,000, 15% have a hit. The source made the active and inactive calls. No stated cut-off is given here; in the data, active means growth inhibition above about 70%; inactive means the rest.

{"Compound": "CCCC1(c2ccccc2)C(=O)NCNC1=O", "growth inhibition": "-24.3% (inactive)"}
{"Compound": "CC(=O)OC1=CC2=CC[C@H]3[C@@H]4CCC(=O)[C@@]4(C)CC(=O)[C@]3(S)[C@@]2(C)CC1", "growth inhibition": "-4.4% (inactive)"}
{"Compound": "O=P1(O)NP(=O)(O)NP(=O)(O)NP(=O)(O)N1", "growth inhibition": "-9.8% (inactive)"}
{"Compound": "CC1C2CCC3C(O)C2(CC(O)C2(O)C1CC(O)C2(C)C)CC3(C)O (stereo not drawn)", "growth inhibition": "6.85% (inactive)"}
{"Compound": "CCN1CCC(O)(c2ccccc2)C(C(=O)c2ccccc2)C1 (stereo not drawn)", "growth inhibition": "5.3% (inactive)"}
{"Compound": "CCC1(O)CC(O)c2c(O)c3c(c(O)c2C1C(=O)OC)C(=O)c1cccc(O)c1C3=O (stereo not drawn)", "growth inhibition": "28.2% (inactive)"}
{"Compound": "CC(C)CCC(=O)O[C@H]1CC[C@@]2(C)C(=CC[C@@H]3[C@@H]2CC[C@]2(C)C(=O)CC[C@@H]32)C1", "growth inhibition": "11.4% (inactive)"}
{"Compound": "C[CH2][Sn]([CH2]C)([CH2]CC(=O)OC)[CH2]CC(=O)OC", "growth inhibition": "1% (inactive)"}
{"Compound": "S=C1NCCN1", "growth inhibition": "-17.6% (inactive)"}
{"Compound": "COc1ccc2c(c1OC)C[C@@H]1c3c(cc4c(c3-2)OCO4)CCN1C", "growth inhibition": "-23.6% (inactive)"}
{"Compound": "C=C(C)CCP(=S)(OCC)OCC", "growth inhibition": "-24.2% (inactive)"}
{"Compound": "CN(Cc1cnc2nc(N)nc(N)c2n1)c1ccc(C(=O)NC(CCC(=O)NCC(P(=O)(O)O)P(=O)(O)O)C(=O)O)cc1 (stereo not drawn)", "growth inhibition": "-28.9% (inactive)"}
{"Compound": "Cn1c(O)c(C(=O)NC2CCCCC2)c(=O)n(C)c1=S", "growth inhibition": "18.9% (inactive)"}
{"Compound": "CC(=O)O.CC(=O)O.[Co+2].[NH-]C(CCC(N)=O)C(=O)O.[NH-]C(CCC(N)=O)C(=O)O (stereo not drawn)", "growth inhibition": "34.2% (inactive)"}
{"Compound": "CCOP(=O)(O)C(Nc1ccc(N=Nc2ccccc2)cc1)c1ccc(C(Nc2ccc(N=Nc3ccccc3)cc2)P(=O)(O)OCC)cc1 (stereo not drawn)", "growth inhibition": "86% (active)"}
{"Compound": "O=NNc1ncccn1", "growth inhibition": "3.7% (inactive)"}
{"Compound": "COC(=O)c1cccc(S(=O)(=O)F)c1", "growth inhibition": "-15.7% (inactive)"}
{"Compound": "COC12c3c(C)cc(O)c4c(=O)occ(c34)C(=O)C1C13COC(=O)c4c(O)cc(C)c(c41)C(=O)C2C3OC(C)=O (stereo not drawn)", "growth inhibition": "92.7% (active)"}
{"Compound": "CC1(C)SC2C(NC(=O)Cc3ccccc3)C(=O)N2C1C(=O)O (stereo not drawn) (tested in a mixture with another compound)", "growth inhibition": "13.5% (inactive)"}
{"Compound": "O=P1(CCBr)NCCCO1 (stereo not drawn)", "growth inhibition": "-3.6% (inactive)"}
{"Compound": "O=C(O)C(=O)O.[Ti].[c-]1[c-][c-][cH-][c-]1.[c-]1[c-][c-][cH-][c-]1", "growth inhibition": "29.6% (inactive)"}
{"Compound": "CC([NH-])C[NH-].[Na+].[O]=[Co][O-] (stereo not drawn)", "growth inhibition": "24.5% (inactive)"}
{"Compound": "CC1=C[C@H]2O[C@H]3C[C@H]4OC(=O)/C=C\\C=C\\C(=O)OCC[C@@H](C)C(O)C(=O)OC[C@@]2(CC1)[C@@]4(C)[C@]31CO1 (stereo partly drawn)", "growth inhibition": "95% (active)"}
{"Compound": "N#CCCCCCBr", "growth inhibition": "23% (inactive)"}
{"Compound": "CC(=O)c1ccc(N2CCNCC2)cc1", "growth inhibition": "-3.95% (inactive)"}
{"Compound": "CC(=O)OCC12CC(O)C(C)=CC1OC1C(O)C(OC(C)=O)C2(C)C12CO2 (stereo not drawn)", "growth inhibition": "90.3% (active)"}
{"Compound": "C1=C(/C=C2\\CCCc3c(-c4ccccc4)cc(-c4ccccc4)[o+]c32)CCC/C1=C\\C1=C2OC(c3ccccc3)=CC(c3ccccc3)=C2CCC1", "growth inhibition": "66.6% (inactive)"}
{"Compound": "CC(O)C[N+](=O)[O-] (stereo not drawn)", "growth inhibition": "-4.6% (inactive)"}
{"Compound": "CCC[CH2][Sn]([CH2]C)([CH2]C)[CH2]C", "growth inhibition": "35.7% (inactive)"}
{"Compound": "COc1cc(/C=C/[N+](=O)[O-])c(OC)cc1Br", "growth inhibition": "87% (active)"}
{"Compound": "CN(C)CCC(O)c1c[nH]c2ccccc12 (stereo not drawn)", "growth inhibition": "-4.1% (inactive)"}
{"Compound": "C/C(=N\\N(C)C)C(CN(C)C)C(c1ccccc1)c1c(O)c2ccccc2oc1=O (stereo not drawn)", "growth inhibition": "13.8% (inactive)"}
{"Compound": "O=C(CCN1CC2CCC(CC2)C1)c1cccs1", "growth inhibition": "-16.4% (inactive)"}
{"Compound": "Nc1nc(N)c(-c2ccc(Cl)c(Cl)c2)c(COc2cccc(CNS(=O)(=O)c3ccc(S(=O)(=O)F)cc3)c2)n1", "growth inhibition": "58% (inactive)"}
{"Compound": "CCOC(=O)C1=C(OC(OCC)C(CC)[Se]c2ccccc2)CCC1 (stereo not drawn)", "growth inhibition": "40% (inactive)"}
{"Compound": "C[CH2][Sn]([CH2]C)[O][Sn]([Cl])([CH2]C)[CH2]C", "growth inhibition": "87.5% (active)"}
{"Compound": "Cc1cc(C(C)(C)c2ccc(O)c(C)c2)ccc1O", "growth inhibition": "99.5% (active)"}
{"Compound": "C#CC(O)(CC)CC", "growth inhibition": "77.1% (active)"}
{"Compound": "CN1C2CCC1CC(OC(=O)C1CCC(C(=O)OC3CC4CCC(C3)N4C)(c3ccccc3)c3ccccc31)C2 (stereo not drawn)", "growth inhibition": "-35.3% (inactive)"}
{"Compound": "O=[N+]([O-])/C=C\\c1ccc2c(c1)OCO2", "growth inhibition": "99.5% (active)"}
{"Compound": "O=S(=O)(CCBr)CCBr", "growth inhibition": "88.4% (active)"}
{"Compound": "CCC(C)C(CC)C(=O)NC(N)=O (stereo not drawn)", "growth inhibition": "-11.4% (inactive)"}
{"Compound": "CCN(CC)C1=C(N(CC)CC)C(N(CC)CC)=C(N(CC)CC)C1=O.[C-]#[O+].[C-]#[O+].[C-]#[O+].[Fe]", "growth inhibition": "-22.1% (inactive)"}

---

assay: NCI Yeast Anticancer Drug Screen. Data for the cln2 rad14 strain (AID 165);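 also: 0% = growth equal to vehicle treated cultures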; details: S. cerevisiae cln2 rad14 strain, at 50.0 µM
The panel holds about 79,000 compounds, 15% with a hit somewhere; the sample as a whole holds those more often. Activity calls are given as the source filed them. Rule as the data show it: active = growth inhibition above about 70%; inactive = the rest.
Possible outcomes: active, inactive

{"Compound": "CC(=O)CC(C)=O.CC(=O)CC(C)=O.[Ni]", "Classification": "inactive"}
{"Compound": "O=C1NC(=O)C(=O)C(=O)N1", "Classification": "inactive"}
{"Compound": "c1ccc(-c2ccc[n+](CCC[n+]3cccc(-c4ccccn4)c3)c2)nc1", "Classification": "inactive"}
{"Compound": "CC(=O)O", "Classification": "inactive"}
{"Compound": "CCC1(CC(C)O)C(=O)NC(=O)NC1=O (configuration not stated)", "Classification": "inactive"}
{"Compound": "O=C1NC(=O)C2(O)NC(=O)NC2(O)N1 (configuration not stated)", "Classification": "inactive"}
{"Compound": "CCN(CC)CCn1ncc2c(N)ncnc21", "Classification": "inactive"}
{"Compound": "CC(C)CCC[C@@H](C)[C@H]1CC[C@H]2[C@@H]3CC=C4C[C@@H](OC(=O)F)CC[C@]4(C)[C@H]3CC[C@]12C", "Classification": "inactive"}
{"Compound": "O=[N+]([O-])c1ccc(/C=C/C=C\\c2ccc(S(=O)(=O)F)cc2Cl)cc1", "Classification": "inactive"}
{"Compound": "O=[N+]([O-])c1ccc2c3c(cccc13)CC2", "Classification": "inactive"}
{"Compound": "O.O=S(=O)(O)O.[Co+3].[NH2-].[NH2-].[NH2-].[NH2-].[OH-]", "Classification": "inactive"}
{"Compound": "c1ccc2c(c1)Nc1ccccc1S2", "Classification": "inactive"}
{"Compound": "[CH3][Sb]([CH3])[S]C1OC(CO)C(O)C(O)C1O (configuration not stated)", "Classification": "inactive"}
{"Compound": "Nc1nc(N)c(-c2ccc(Cl)c(Cl)c2)c(COc2cccc(CNS(=O)(=O)c3cccc(S(=O)(=O)F)c3)c2)n1", "Classification": "active"}
{"Compound": "CO/N=C1\\CC(C)N2C(=O)C(C(C)C)NC(=O)C(NC(=O)c3c4nc5c(C(=O)NC6C(=O)NC(C(C)C)C(=O)N7C(C)CC(O)C7C(=O)N(C)CC(=O)N(C)C(C(C)C)C(=O)OC6C)ccc(C)c5oc-4c(C)c(=O)c3N)C(CO)OC(=O)C(C)N(C)C(=O)CN(C)C(=O)C12 (configuration not stated)", "Classification": "inactive"}
{"Compound": "Oc1c(O)c(Br)c(Br)c(Br)c1Br", "Classification": "active"}
{"Compound": "NNC(=O)c1ccc(O)cc1", "Classification": "inactive"}
{"Compound": "COC1=CCC2=C(CC[C@H]3[C@H]2CCP3C)C1 (some centres not stated)", "Classification": "inactive"}
{"Compound": "NC(=S)C1=C(N)Oc2c(c(=O)oc3ccccc23)C1c1ccc(Br)cc1 (configuration not stated)", "Classification": "inactive"}
{"Compound": "Nc1ccc(Cl)c(C(F)(F)F)c1", "Classification": "inactive"}
{"Compound": "COc1ccc2c(c1O)CNCC2c1ccc(O)cc1O (configuration not stated)", "Classification": "inactive"}
{"Compound": "CN1CC=C(OP(=O)(NCc2ccccc2)N(CCCl)CCCl)CC1 (configuration not stated)", "Classification": "inactive"}
